The measured values listed here are drawn from patent US20260015350A1.

Target: KRas^G12R (Homo sapiens, UniProt P01116, G12R)
Construct: Biotinylated KRas (corresponding to amino acids 1-169, produced at Accelegan Inc.); biotin (biotinylated); purchased Accelegan Inc
Sequence (P01116 1-169 isoform P01116-2 G12R): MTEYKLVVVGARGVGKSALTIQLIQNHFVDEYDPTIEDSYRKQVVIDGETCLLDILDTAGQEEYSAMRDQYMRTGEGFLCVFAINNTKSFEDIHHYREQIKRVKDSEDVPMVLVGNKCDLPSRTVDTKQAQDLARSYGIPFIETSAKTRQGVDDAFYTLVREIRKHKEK
Test: KRas binding assay (TR-FRET tracer displacement), KRas G12R
MEASURE: IC50 (nM)

[P] CCc1c(F)ccc2cc(O)cc(-c3ncc4c(N5CCOC[C@@]6(CCO6)C5)nc(OC[C@@]56CCCN5C[C@H](F)C6)nc4c3F)c12 [Example 836]
[Q] CCc1c(F)ccc2cc(O)cc(-c3ncc4c(N5CCCC(S(=O)(=O)C(F)F)C5)nc(OC[C@@]56CCCN5C[C@H](F)C6)nc4c3F)c12 (stereo partly drawn) [Example 652]
[R] O=C1NCC2(CCCN(c3nc(OCC45CCCN4CCC5)nc4c(F)c(-c5c6ccccc6cc6[nH]ncc56)ncc34)C2)N1 (stereo not drawn) [Example 756]
Highest to lowest IC50: rank the entries shown above. A ranking is expressed here by listing the labels in the requested order.
Q, R, P
(Q: 51 nM, R: 17 nM, P: 4 nM)

[A] CCc1c(F)ccc2cc(O)cc(-c3ncc4c(N5CCCn6nc(C(=O)N(C)C)cc6C5)nc(N5CC(N(C)C)C5)nc4c3F)c12 [Example 535]
[B] CCc1c(F)ccc2cc(O)cc(-c3ncc4c(N5CCC(Cc6cncn6C)C5)nc(OC[C@@]56CCCN5C[C@H](F)C6)nc4c3F)c12 (stereo partly drawn) [Example 829]
[C] CCc1c(F)ccc2cc(O)cc(-c3ncc4c(N5CCCc6nnncc6C5)nc(OC[C@@]56CCCN5C[C@H](F)C6)nc4c3F)c12 [Example 584]
Ascending by IC50, please: list the compounds accordingly. Kindly provide the labels arranged according to the requested ordering.
C, A, B
(C: 12 nM, A: 44 nM, B: 460 nM)

[I] CCc1c(F)ccc2cc(O)cc(-c3ncc4c(N5CCCCC(S(N)(=O)=O)C5)nc(OC[C@@]56CCCN5C[C@H](F)C6)nc4c3F)c12 (stereo partly drawn) [Example 633]
[II] CCc1c(F)ccc2cc(O)cc(-c3ncc4c(N5CC6CCC(C5)C6(C)O)nc(OC[C@@]56CCCN5C[C@H](F)C6)nc4c3F)c12 (stereo partly drawn) [Example 846]
Please compare: I and II . Report which one has the smaller IC50 value. Kindly give the label for the entry you pick.
II

[1] CCc1c(F)ccc2cc(O)cc(-c3ncc4c(NCc5cn(C(=O)N(C)C)nc5NC(=O)C5CC(O)C5)nc(OC[C@@]56CCCN5C[C@H](F)C6)nc4c3F)c12 (stereo partly drawn) [Example 693]
[2] O=C1NC(=O)C2CC(c3nc(OCC45CCCN4CCC5)nc4c(F)c(-c5cccc6cccc(F)c56)ncc34)=CC12 (stereo not drawn) [Example 525]
Between 1 and 2 , which one has the lower reported IC50 value? Output the label that corresponds to your choice.
1
